Readings of residual activity for the listed molecules
# systemTested: MAP2K2 (human) (UniProt P36507)
# Sequence (P36507 whole entry, looked up): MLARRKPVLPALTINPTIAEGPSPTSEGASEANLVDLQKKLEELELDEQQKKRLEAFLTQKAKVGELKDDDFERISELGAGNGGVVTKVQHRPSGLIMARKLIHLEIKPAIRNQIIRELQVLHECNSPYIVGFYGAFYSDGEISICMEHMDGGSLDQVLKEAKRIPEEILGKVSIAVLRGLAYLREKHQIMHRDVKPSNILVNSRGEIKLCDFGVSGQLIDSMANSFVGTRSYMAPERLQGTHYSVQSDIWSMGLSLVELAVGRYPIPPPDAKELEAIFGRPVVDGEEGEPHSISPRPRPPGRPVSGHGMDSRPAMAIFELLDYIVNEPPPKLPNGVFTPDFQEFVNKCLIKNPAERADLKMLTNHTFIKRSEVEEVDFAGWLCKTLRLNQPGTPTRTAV
# measurementDescription: radiometric filter-binding kinase assay, Kinase HotSpot
# conditionDescription: compound 0.5 µM; ATP 10 µM

[
  {
    "smilesData": "N#Cc1c(NC(=O)c2cccc3ccccc23)sc2c1CCCC2",
    "unitsOfMeasure": "%",
    "residual activity": 106
  },
  {
    "smilesData": "O=c1cc(N2CCOCC2)oc2c(-c3ccccc3)cccc12",
    "unitsOfMeasure": "%",
    "residual activity": 96.8
  },
  {
    "smilesData": "COc1cccc(-c2cc(=O)c3ccccc3o2)c1N",
    "unitsOfMeasure": "%",
    "residual activity": 69.2
  },
  {
    "smilesData": "O=C(c1ccccc1)c1ccc(N2CCOCC2)cc1O",
    "unitsOfMeasure": "%",
    "residual activity": 101
  },
  {
    "smilesData": "O=S(=O)(NCCNC/C=C/c1ccc(Br)cc1)c1cccc2cnccc12",
    "unitsOfMeasure": "%",
    "residual activity": 103
  },
  {
    "smilesData": "N#C/C(=C1/Nc2ccccc2S1)c1ccnc(NCCc2cccnc2)n1",
    "unitsOfMeasure": "%",
    "residual activity": 76.2
  }
]

###

# systemTested: RPS6KA4 KD2 (human)
# measurementDescription: radiometric filter-binding kinase assay, Kinase HotSpot
# conditionDescription: compound 0.5 µM; ATP 10 µM
Readings of residual activity for the listed molecules

[
  {
    "smilesData": "Cc1cc(Nc2nc(-c3ccccc3)nc3ccccc23)n[nH]1",
    "unitsOfMeasure": "%",
    "residual activity": 108
  },
  {
    "smilesData": "N/C(=N\\N=C/c1ccc(-c2cccc([N+](=O)[O-])c2)o1)N[N+](=O)[O-]",
    "unitsOfMeasure": "%",
    "residual activity": 98.9
  },
  {
    "smilesData": "COc1cc2c(Nc3ccc(Br)cc3F)ncnc2cc1OCC1CCN(C)CC1",
    "unitsOfMeasure": "%",
    "residual activity": 110
  },
  {
    "smilesData": "N#Cc1c(NC(=O)c2cccc3ccccc23)sc2c1CCCC2",
    "unitsOfMeasure": "%",
    "residual activity": 111
  },
  {
    "smilesData": "O=c1c2ccccc2[nH]c(=S)n1CCN1CCC(=C(c2ccc(F)cc2)c2ccc(F)cc2)CC1",
    "unitsOfMeasure": "%",
    "residual activity": 103
  },
  {
    "smilesData": "FC(F)(F)c1ccc(/C=C/c2nc(COc3ccc(CCCCn4ccnn4)cc3)co2)cc1",
    "unitsOfMeasure": "%",
    "residual activity": 105
  },
  {
    "smilesData": "COc1cc2c(N3CCN(C(=O)Nc4ccc(OC(C)C)cc4)CC3)ncnc2cc1OCCCN1CCCCC1",
    "unitsOfMeasure": "%",
    "residual activity": 120
  },
  {
    "smilesData": "N#C/C(=C1/Nc2ccccc2S1)c1ccnc(NCCc2cccnc2)n1",
    "unitsOfMeasure": "%",
    "residual activity": 107
  },
  {
    "smilesData": "CN[C@@H]1C[C@H]2O[C@@](C)([C@@H]1OC)n1c3ccccc3c3c4c(c5c6ccccc6n2c5c31)C(=O)NC4",
    "unitsOfMeasure": "%",
    "residual activity": 6.74
  },
  {
    "smilesData": "O=c1c(-c2ccc(F)cc2)c(-c2ccncc2)[nH]n1-c1ccc(Cl)cc1",
    "unitsOfMeasure": "%",
    "residual activity": 103
  },
  {
    "smilesData": "O=C(c1ccccc1)c1ccc(N2CCOCC2)cc1O",
    "unitsOfMeasure": "%",
    "residual activity": 105
  },
  {
    "smilesData": "COc1cccc(-c2cc(=O)c3ccccc3o2)c1N",
    "unitsOfMeasure": "%",
    "residual activity": 103
  },
  {
    "smilesData": "COc1cc2c(cc1OC)-c1[nH]nc(Nc3cccc(F)c3)c1C2",
    "unitsOfMeasure": "%",
    "residual activity": 99.8
  },
  {
    "smilesData": "Nc1ncnc2c1cnn2-c1ccccc1",
    "unitsOfMeasure": "%",
    "residual activity": 106
  },
  {
    "smilesData": "CCCCc1c(-c2ccc(O)cc2)[nH]c2nccnc12",
    "unitsOfMeasure": "%",
    "residual activity": 87.5
  },
  {
    "smilesData": "N#CCCc1ccc2c(c1)-c1[nH]c3ccc([N+](=O)[O-])cc3c1CC(=O)N2",
    "unitsOfMeasure": "%",
    "residual activity": 85.8
  },
  {
    "smilesData": "O=S(=O)(NCCNC/C=C/c1ccc(Br)cc1)c1cccc2cnccc12",
    "unitsOfMeasure": "%",
    "residual activity": 38.8
  },
  {
    "smilesData": "Cn1cc(/C=C2\\C(=O)Nc3ccc(S(N)(=O)=O)cc32)c2ccccc21",
    "unitsOfMeasure": "%",
    "residual activity": 71.2
  },
  {
    "smilesData": "CCc1nc(-c2ccc(OC)cc2)[nH]c1-c1ccncc1",
    "unitsOfMeasure": "%",
    "residual activity": 98.6
  },
  {
    "smilesData": "c1ccc(-c2cnc(Nc3ccc(OCCN4CCCC4)cc3)s2)cc1",
    "unitsOfMeasure": "%",
    "residual activity": 96.1
  },
  {
    "smilesData": "O=C(O)c1ccc2c3c1cccc3c(=O)n1c3ccccc3nc21",
    "unitsOfMeasure": "%",
    "residual activity": 110
  },
  {
    "smilesData": "O=C1NC(=O)c2c1c1c3ccccc3[nH]c1c1[nH]c3cc(Br)ccc3c21",
    "unitsOfMeasure": "%",
    "residual activity": 75.9
  }
]

###

# systemTested: AXL (human)
# measurementDescription: radiometric filter-binding kinase assay, Kinase HotSpot
# conditionDescription: compound 0.5 µM; ATP 10 µM
quantityKind: residual activity

[
  {
    "smilesData": "COc1cccc(-c2cc(=O)c3ccccc3o2)c1N",
    "quantityKind": "residual activity",
    "resultValue": "127%"
  },
  {
    "smilesData": "O=c1c2ccccc2[nH]c(=S)n1CCN1CCC(=C(c2ccc(F)cc2)c2ccc(F)cc2)CC1",
    "quantityKind": "residual activity",
    "resultValue": "91.7%"
  },
  {
    "smilesData": "CCOc1cc2ncnc(Nc3cccc(Br)c3)c2cc1OCC",
    "quantityKind": "residual activity",
    "resultValue": "89.9%"
  },
  {
    "smilesData": "O=C(c1ccccc1)c1ccc(N2CCOCC2)cc1O",
    "quantityKind": "residual activity",
    "resultValue": "95.1%"
  },
  {
    "smilesData": "CCCCc1c(-c2ccc(O)cc2)[nH]c2nccnc12",
    "quantityKind": "residual activity",
    "resultValue": "103%"
  }
]

###

# systemTested: UniProtKB Q13557
# Sequence (Q13557 whole entry, looked up): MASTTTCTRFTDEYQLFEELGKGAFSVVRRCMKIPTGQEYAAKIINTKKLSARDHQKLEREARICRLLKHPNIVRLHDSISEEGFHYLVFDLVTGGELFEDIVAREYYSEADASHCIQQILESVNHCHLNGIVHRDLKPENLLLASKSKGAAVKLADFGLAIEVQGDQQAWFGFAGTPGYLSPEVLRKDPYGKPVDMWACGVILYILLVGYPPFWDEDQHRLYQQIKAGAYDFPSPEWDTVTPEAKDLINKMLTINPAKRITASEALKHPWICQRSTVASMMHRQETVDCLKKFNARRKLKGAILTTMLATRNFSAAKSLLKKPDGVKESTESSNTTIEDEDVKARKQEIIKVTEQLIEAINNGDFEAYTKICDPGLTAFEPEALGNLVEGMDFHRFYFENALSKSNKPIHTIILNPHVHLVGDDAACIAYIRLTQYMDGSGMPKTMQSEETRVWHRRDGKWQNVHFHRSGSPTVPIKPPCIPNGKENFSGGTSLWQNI
# measurementDescription: radiometric filter-binding kinase assay, Kinase HotSpot
# conditionDescription: compound 0.5 µM; ATP 10 µM
residual activity vs 90%: less than gives label 1; not less than gives label 0.

[
  {
    "smilesData": "CCOc1cc2ncnc(Nc3cccc(Br)c3)c2cc1OCC",
    "systemTested": "UniProtKB Q13557",
    "labelValue": "label 1"
  },
  {
    "smilesData": "N#Cc1c(NC(=O)c2cccc3ccccc23)sc2c1CCCC2",
    "systemTested": "UniProtKB Q13557",
    "labelValue": "label 0"
  },
  {
    "smilesData": "O=C1NC(=O)c2c1c1c3ccccc3[nH]c1c1[nH]c3cc(Br)ccc3c21",
    "systemTested": "UniProtKB Q13557",
    "labelValue": "label 1"
  },
  {
    "smilesData": "COc1cc2c(cc1OC)-c1[nH]nc(Nc3cccc(F)c3)c1C2",
    "systemTested": "UniProtKB Q13557",
    "labelValue": "label 0"
  },
  {
    "smilesData": "Nc1ncnc2c1cnn2-c1ccccc1",
    "systemTested": "UniProtKB Q13557",
    "labelValue": "label 0"
  },
  {
    "smilesData": "O=S(=O)(NCCNC/C=C/c1ccc(Br)cc1)c1cccc2cnccc12",
    "systemTested": "UniProtKB Q13557",
    "labelValue": "label 0"
  },
  {
    "smilesData": "CCc1nc(-c2ccc(OC)cc2)[nH]c1-c1ccncc1",
    "systemTested": "UniProtKB Q13557",
    "labelValue": "label 0"
  },
  {
    "smilesData": "O=C1NC(=O)c2cc(Nc3ccc(F)cc3)c(Nc3ccc(F)cc3)cc21",
    "systemTested": "UniProtKB Q13557",
    "labelValue": "label 0"
  },
  {
    "smilesData": "CCCCc1c(-c2ccc(O)cc2)[nH]c2nccnc12",
    "systemTested": "UniProtKB Q13557",
    "labelValue": "label 1"
  },
  {
    "smilesData": "c1ccc(-c2cnc(Nc3ccc(OCCN4CCCC4)cc3)s2)cc1",
    "systemTested": "UniProtKB Q13557",
    "labelValue": "label 1"
  }
]
